system: T1, human IL-33 (R&D Systems, #3625-IL-010/CF) (human, UniProt O95760 112-270)
T1 sequence (looked up): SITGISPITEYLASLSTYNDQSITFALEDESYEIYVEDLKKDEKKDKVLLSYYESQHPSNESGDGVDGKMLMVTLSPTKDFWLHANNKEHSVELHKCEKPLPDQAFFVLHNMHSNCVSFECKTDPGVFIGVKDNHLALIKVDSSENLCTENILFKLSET
protocol_notes: cell-based or functional assay
Give measured IC50, blocking of IFN-γ release from human PBMC induced by 260 pM hIL-33, donor #603487 for each item. Keep answers brief.
Give bare numbers, in M.

# count of solved cases: 2
H4H9640P (antibody, human IgG4, V domains shown, Human IgG4 Fc (H4H)) VH: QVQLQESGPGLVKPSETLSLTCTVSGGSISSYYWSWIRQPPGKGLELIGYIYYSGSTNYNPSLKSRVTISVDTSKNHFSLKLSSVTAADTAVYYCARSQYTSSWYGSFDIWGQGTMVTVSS VL: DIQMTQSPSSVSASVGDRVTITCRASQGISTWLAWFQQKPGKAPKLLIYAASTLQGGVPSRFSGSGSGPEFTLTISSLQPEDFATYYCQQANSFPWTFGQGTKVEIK | 1.22e-08
H4H9663P (antibody, human IgG4, V domains shown, Human IgG4 Fc (H4H)) VH: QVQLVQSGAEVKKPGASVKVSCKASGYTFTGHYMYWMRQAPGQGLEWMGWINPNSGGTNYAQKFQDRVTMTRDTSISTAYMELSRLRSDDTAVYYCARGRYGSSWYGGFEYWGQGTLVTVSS VL: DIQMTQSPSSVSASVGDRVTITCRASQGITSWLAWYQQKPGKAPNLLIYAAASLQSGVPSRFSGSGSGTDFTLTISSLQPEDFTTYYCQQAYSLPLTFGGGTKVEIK | 2.2e-08

Would you be so kind as to report IC50, blocking of IFN-γ release from human PBMC induced by 260 pM hIL-33, donor #603487 for each listed record?
1. H4H9662P (antibody, V domains shown, Human IgG4 Fc (H4H)) VH: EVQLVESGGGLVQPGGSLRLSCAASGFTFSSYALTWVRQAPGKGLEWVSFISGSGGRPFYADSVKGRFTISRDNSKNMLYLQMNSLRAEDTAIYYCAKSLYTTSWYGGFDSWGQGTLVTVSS VL: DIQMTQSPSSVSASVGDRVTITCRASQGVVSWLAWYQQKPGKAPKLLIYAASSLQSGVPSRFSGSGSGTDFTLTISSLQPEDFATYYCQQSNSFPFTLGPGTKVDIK
2. H4H9629P (antibody, human IgG4, V domains shown, Human IgG4 Fc (H4H)) VH: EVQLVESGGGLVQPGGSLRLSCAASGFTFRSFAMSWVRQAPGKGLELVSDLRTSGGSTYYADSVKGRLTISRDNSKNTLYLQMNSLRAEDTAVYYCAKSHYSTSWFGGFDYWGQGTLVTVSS VL: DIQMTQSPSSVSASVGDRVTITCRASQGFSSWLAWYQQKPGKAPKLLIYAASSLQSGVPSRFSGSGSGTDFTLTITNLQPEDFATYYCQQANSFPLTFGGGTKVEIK

# output
["3.02e-09", "5.21e-09"]
